Cited source: the supplement of paper PMC9732359

# ASSAY_PROTOCOL: protein stability index of a GFP-peptide fusion (yeast GPS) (PSI 1-4); higher = more stable; sorted into four equal gates, so the index is relative within each strain
# CONDITION_SUMMARY: ubr1∆
Property: protein stability index; scope: individual sequences
The response must contain the number and no unit.

Could you share which protein stability index value was measured for GNDNLIKAPTVAADGKL [YLR335W/NUP2] ?
2.95

Could you share which protein stability index value was measured for TSILELGQLYVTMGAKD [RPN6] ?
2.96

Could you share which protein stability index value was measured for SPVRSDSADVPAFSNSN [YMR153W/NUP53] ?
2.93

Further cases:
Could you share which protein stability index value was measured for GENIDADNDGPRINNIS [SNF2] ?
3.02

Could you share which protein stability index value was measured for RSPRVVTNALDNIDEKV [NUT1] ?
3.03

Could you share which protein stability index value was measured for SKLNELKKELKLLAKEL [SMC2] ?
3.09

Could you share which protein stability index value was measured for TDCKFIRVSGAELVQKY [RPT6] ?
2.93

###

# ASSAY_PROTOCOL: protein stability index of a GFP-peptide fusion (yeast GPS) (PSI 1-4); higher = more stable; sorted into four equal gates, so the index is relative within each strain
# CONDITION_SUMMARY: doa10∆
// label = Satisfied if protein stability index is not less than 3, otherwise Not satisfied

Answered examples (6):
Could you please find out whether TSRVTGILLLDSLIQLA [YJL039C/NUP192] has protein stability index that meets 3 or exceeds it?
Not satisfied

Could you please find out whether ELDPECQLQNSDNSEEE [RRP43] has protein stability index that meets 3 or exceeds it?
Satisfied

Could you please find out whether DIDDELNELETLIKKKQ [SMC2] has protein stability index that meets 3 or exceeds it?
Satisfied

Could you please find out whether ELLSMNIAPRLRLEDIF [RET1] has protein stability index that meets 3 or exceeds it?
Not satisfied

Could you please find out whether RNEKIAVHVTVRGPKAE [RPL11A] has protein stability index that meets 3 or exceeds it?
Not satisfied

Could you please find out whether EDFPIDTWANGETIKSN [SEM1] has protein stability index that meets 3 or exceeds it?
Satisfied

Kindly consider the entry below.
Could you please find out whether LGQLYVTMGAKDKLREF [RPN6] has protein stability index that meets 3 or exceeds it?
Satisfied

###

# ASSAY_PROTOCOL: protein stability index of a GFP-peptide fusion (yeast GPS) (PSI 1-4); higher = more stable; sorted into four equal gates, so the index is relative within each strain
# CONDITION_SUMMARY: doa10∆
Property: protein stability index; scope: individual sequences
The response must contain the number and no unit.

Solved entries (count: 3):
Could you share which protein stability index value was measured for MNNGSGRYLLTPPDDLH [SRB8] ?
2.41

Could you share which protein stability index value was measured for VHTIIAGLDEDGKGAVY [PRE7] ?
3.63

Could you share which protein stability index value was measured for KVDINADSAVNRQTLMF [PRP28] ?
3.32

Now look at this entry.
Could you share which protein stability index value was measured for SELLARDIFQEDEENSD [RGR1] ?
3.48

###

# ASSAY_PROTOCOL: protein stability index of a GFP-peptide fusion (yeast GPS) (PSI 1-4); higher = more stable; sorted into four equal gates, so the index is relative within each strain
# CONDITION_SUMMARY: doa10∆
Property: protein stability index; scope: individual sequences
The response must contain the number and no unit.

Solved entries (count: 8):
Could you share which protein stability index value was measured for ADILCPLLESFITFSLD [IRR1] ?
2.63

Could you share which protein stability index value was measured for GSTSLIEGMEQRIIKEL [ARP7] ?
3.19

Could you share which protein stability index value was measured for ISRNGDTSYKIDGKTVS [SMC1] ?
2.72

Could you share which protein stability index value was measured for TVQENELLKSSLQKAGS [AAR2] ?
3.17

Could you share which protein stability index value was measured for LRYVIMKNPDVEFCGYS [RPC19] ?
2.2

Could you share which protein stability index value was measured for HGGGNHQHIGKASTISR [RPL2A] ?
3.18

Could you share which protein stability index value was measured for ISFAIYSALNSTYLPKL [RRP42] ?
2.1

Could you share which protein stability index value was measured for TSVDGKKRSKVRKETYS [HTB2] ?
3.04

Further cases:
Could you share which protein stability index value was measured for QDKSKKIMNVTTDSLTK [YMR129W/POM152] ?
3.25

Could you share which protein stability index value was measured for KWDNQSASRAKNMPVIY [RGR1] ?
2.86

Could you share which protein stability index value was measured for HKHALHGTAKALAAAKK [RPL29] ?
2.4

Could you share which protein stability index value was measured for DQKIWPYLEKYPEYDQI [SSN3] ?
3.5

Could you share which protein stability index value was measured for IKGSKLSLGEAFKKIDA [COR1] ?
3.29

Could you share which protein stability index value was measured for LEDELYHTNPGHSQFTS [RPN4] ?
3.34

Could you share which protein stability index value was measured for LLWTPKKLEITSDGALS [RPR2] ?
2.09

Could you share which protein stability index value was measured for GEEDADEEETAEGQTNS [RPN1] ?
3.26

Could you share which protein stability index value was measured for DFPELKPYKQVKQIAPA [FAS2] ?
2.29

###

# ASSAY_PROTOCOL: protein stability index of a GFP-peptide fusion (yeast GPS) (PSI 1-4); higher = more stable; sorted into four equal gates, so the index is relative within each strain
# CONDITION_SUMMARY: ubr1∆
READOUT_KIND: protein stability index
The response must contain the number and no unit.

Could you share which protein stability index value was measured for QQQRRQLTPQQQQLVNQ [GAL11] ?
3

Could you share which protein stability index value was measured for NDNNLKKLESQESLVKL [RPN5] ?
2.97

Could you share which protein stability index value was measured for ESAPITAEDSWAVISAF [RPB2] ?
2.99

Further cases:
Could you share which protein stability index value was measured for ARYNWICNPVHKHREAR [RPL15B] ?
3.04

Could you share which protein stability index value was measured for EEGETSRPLKKVKILEQ [SWI3] ?
3.03

###

# ASSAY_PROTOCOL: protein stability index of a GFP-peptide fusion (yeast GPS) (PSI 1-4); higher = more stable; sorted into four equal gates, so the index is relative within each strain
# CONDITION_SUMMARY: doa10∆
READOUT_KIND: protein stability index
The response must contain the number and no unit.

Solved entries (count: 3):
Could you share which protein stability index value was measured for GIDQYSFNVKENQPFHG [AAR2] ?
2.65

Could you share which protein stability index value was measured for LGVPRIKEIINASKVIS [RPO31] ?
3.03

Could you share which protein stability index value was measured for VNCFHEDTELYQELIKN [YJL039C/NUP192] ?
2.13

Further cases:
Could you share which protein stability index value was measured for GAIAYNQFKRIDTLLYL [RET1] ?
1.4

Could you share which protein stability index value was measured for MDVDIGCYFEEKRYDDK [CSN12] ?
3.42

Could you share which protein stability index value was measured for GRTGRAANEGTAVSFVS [PRP28] ?
2.7

Could you share which protein stability index value was measured for SKDVSRLLSALGPRGVS [SRP21] ?
3.09

Could you share which protein stability index value was measured for TSNGLKKNPNWLEEYHP [FAS1] ?
3.3

Could you share which protein stability index value was measured for VKNKYNVGKQLSNEIIY [PRP28] ?
2.35

Could you share which protein stability index value was measured for HALYLAPSGIRMHLAPA [SSN2] ?
1.32

Could you share which protein stability index value was measured for SKEQIHGSIIILGMLSL [YCS4] ?
2.45

Could you share which protein stability index value was measured for ASDGGLYVPHSENRFPG [RPL5] ?
2.19

Could you share which protein stability index value was measured for MDFLNSMENTPKVPVSA [GAL11] ?
2.42

Could you share which protein stability index value was measured for KTSSQTSLSSKDLSNYR [YMR153W/NUP53] ?
2.67

Could you share which protein stability index value was measured for LRIVKPTVSLTINLDRF [RPC82] ?
2.29

Could you share which protein stability index value was measured for MFANMKVLGVKDMSPIL [LRP1] ?
1.84

Could you share which protein stability index value was measured for EVTDKNYYYLFDKKSFF [PRP8] ?
2.92

Could you share which protein stability index value was measured for LSGNPLTSVTNDICSVE [SIR4] ?
2.54

Could you share which protein stability index value was measured for TMTYEEVAKRLVELMFI [FAS1] ?
1.79

Could you share which protein stability index value was measured for YQSLKQIVQVLKQPPFQ [SSN8] ?
1.43

###

Property: protein stability index; scope: individual sequences
# ASSAY_PROTOCOL: protein stability index of a GFP-peptide fusion (yeast GPS) (PSI 1-4); higher = more stable; sorted into four equal gates, so the index is relative within each strain
# CONDITION_SUMMARY: san1∆
The response must contain the number and no unit.

Could you share which protein stability index value was measured for LIALSLIMALLQFRPAP [SMC2] ?
1.36
